Recorded values, source the supplement of paper PMC6555819.

So I've got a bunch of sequences here, and I need their PBM binding z-score values.
System: LXRa:RXRa (NR concentration 270 nM, RXRa partner concentration 90 nM)
measurement notes: PBM binding z-score (relative to random genomic background probes); higher = stronger binding; sequences stand for … in GC…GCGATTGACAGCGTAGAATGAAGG

Entry `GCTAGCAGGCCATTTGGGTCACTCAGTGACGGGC` , PBM binding z-score reported as -0.00862

Entry `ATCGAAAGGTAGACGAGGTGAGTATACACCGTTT` , PBM binding z-score reported as -0.145

Entry `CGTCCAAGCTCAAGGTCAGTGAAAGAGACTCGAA` , PBM binding z-score reported as 1.33

Entry `CCTACTGGGCCATCAGGTCATTGTTATCAACGTT` , PBM binding z-score reported as 1.31

Entry `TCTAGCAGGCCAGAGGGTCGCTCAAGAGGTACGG` , PBM binding z-score reported as -0.514

Entry `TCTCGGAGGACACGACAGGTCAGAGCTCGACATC` , PBM binding z-score reported as 1.51

Entry `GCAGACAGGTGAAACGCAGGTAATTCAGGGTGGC` , PBM binding z-score reported as -0.113

Entry `ACTAGCAGGCCAAGTTTGGGTCAGTCAAACAAAG` , PBM binding z-score reported as -0.244

Entry `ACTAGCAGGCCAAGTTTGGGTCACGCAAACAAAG` , PBM binding z-score reported as 0.518

Entry `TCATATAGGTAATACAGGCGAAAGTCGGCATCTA` , PBM binding z-score reported as 0.759

Entry `ATCTCTAGGTAAGCCTCAGTTCAGTGAAGAACGC` , PBM binding z-score reported as 0.658

Entry `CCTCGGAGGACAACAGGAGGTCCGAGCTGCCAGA` , PBM binding z-score reported as -0.509

Entry `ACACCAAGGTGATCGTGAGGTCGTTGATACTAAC` , PBM binding z-score reported as 1.28

Entry `TCTGGTAGGTCAGTTGGTCAGCTAACGAGCTGCC` , PBM binding z-score reported as 1.41

Entry `GCTAGTTGGTCAGTAACAGGTCACACACCGGTCG` , PBM binding z-score reported as 1.45

Entry `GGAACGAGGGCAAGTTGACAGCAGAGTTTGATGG` , PBM binding z-score reported as 0.43

Entry `TCATATAGGTAAAGGTGTAAGTCGAACGATATGA` , PBM binding z-score reported as 0.266

Entry `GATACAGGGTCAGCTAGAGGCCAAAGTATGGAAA` , PBM binding z-score reported as 3.57

Entry `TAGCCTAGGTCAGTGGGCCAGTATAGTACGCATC` , PBM binding z-score reported as 0.503

Entry `TCTCGGAGGACACGAAAGGTCACAGCTCGACATC` , PBM binding z-score reported as 5.46

Entry `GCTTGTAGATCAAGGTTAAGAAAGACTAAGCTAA` , PBM binding z-score reported as 0.884

Entry `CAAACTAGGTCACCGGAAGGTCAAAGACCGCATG` , PBM binding z-score reported as 5.91

Entry `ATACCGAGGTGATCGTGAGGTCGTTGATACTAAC` , PBM binding z-score reported as 1.69

Entry `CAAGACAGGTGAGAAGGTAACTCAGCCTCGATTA` , PBM binding z-score reported as 0.452

Entry `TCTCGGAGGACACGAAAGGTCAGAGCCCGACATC` , PBM binding z-score reported as 3.75

Entry `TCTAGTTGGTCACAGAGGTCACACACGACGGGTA` , PBM binding z-score reported as 4.98

Entry `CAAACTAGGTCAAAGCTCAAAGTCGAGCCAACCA` , PBM binding z-score reported as 3.4

Entry `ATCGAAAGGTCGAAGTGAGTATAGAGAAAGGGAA` , PBM binding z-score reported as 3.53

Entry `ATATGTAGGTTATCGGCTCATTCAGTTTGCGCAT` , PBM binding z-score reported as 0.867

Entry `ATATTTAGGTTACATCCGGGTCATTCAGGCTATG` , PBM binding z-score reported as 4.19

Entry `CGTCCAAGGTCAGAGAGGTTAGTGAATGCCGAGT` , PBM binding z-score reported as 3.46

Entry `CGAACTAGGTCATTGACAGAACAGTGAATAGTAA` , PBM binding z-score reported as 2.84

Entry `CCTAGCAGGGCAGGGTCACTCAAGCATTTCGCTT` , PBM binding z-score reported as 2.17

Entry `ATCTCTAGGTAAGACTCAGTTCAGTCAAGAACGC` , PBM binding z-score reported as 0.647

Entry `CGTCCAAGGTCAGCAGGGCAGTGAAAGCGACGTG` , PBM binding z-score reported as 3.24

Entry `CCTTACGGGTCAAGGTTATTGCACGGGTGGTACG` , PBM binding z-score reported as 3.67
